- System: VacV-ANCHOR
- EXPERIMENTAL_DETAILS: microbe, parasite or virus in culture
- Type: cell-based, cowpox virus
- EXPERIMENTAL_CONDITIONS: Orthopoxvirus vaccinia, HeLa, read-out: EC50 in vitro VACV
pEC50: −log10 of the molar value.

{"MOLECULE": "Cc1nc(-c2ccc(C3N(C)c4ccc(F)cc4C(=O)N3c3ccccc3)s2)cs1 (stereo not shown)", "pEC50": 7.42}
{"MOLECULE": "Cc1nc(-c2ccc(C3N(C)c4ccc(F)cc4C(=O)N3c3ccccc3N)s2)cs1 (stereo not shown)", "pEC50": 9.00}
{"MOLECULE": "Cc1nc(-c2ccc(C3N(C)c4ccc(F)cc4C(=O)N3c3cccc(O)c3O)s2)cs1 (stereo not shown)", "pEC50": 8.32}
{"MOLECULE": "Cc1nc(-c2ccc(C3N(C)c4ccc(F)cc4C(=O)N3c3c(O)cccc3O)s2)cs1 (stereo not shown)", "pEC50": 9.11}
{"MOLECULE": "Cc1nc(-c2ccc(C3N(C)c4ccc(F)cc4C(=O)N3c3ccc(O)cc3O)s2)cs1 (stereo not shown)", "pEC50": 7.56}
{"MOLECULE": "Cc1nc(-c2ccc(C3N(C)c4ccc(F)cc4C(=O)N3c3ccccc3O)s2)cs1 (stereo not shown)", "pEC50": 8.44}
{"MOLECULE": "Cc1nc(-c2ccc(C3N(C)c4ccc(F)cc4C(=O)N3c3cc(O)cc(O)c3)s2)cs1 (stereo not shown)", "pEC50": 5.14}
{"MOLECULE": "Cc1nc(-c2ccc(C3N(C)c4ccc(F)cc4C(=O)N3c3cccc(O)c3)s2)cs1 (stereo not shown)", "pEC50": 7.49}
{"MOLECULE": "Cc1nc(-c2ccc(C3N(C)c4ccc(F)cc4C(=O)N3c3ccc(O)cc3)s2)cs1 (stereo not shown)", "pEC50": 6.20}
{"MOLECULE": "Cc1nc(-c2ccc(C3N(C)c4ccc(F)cc4C(=O)N3c3cc(O)ccc3O)s2)cs1 (stereo not shown)", "pEC50": 7.72}
